AC50, Growth hormone secretagogue receptor type 1 (Homo sapiens, UniProt Q92847), per-entry values.

Query: # AC50 lookup, item CN(C)CCCC1(c2ccc(F)cc2)OCc2cc(C#N)ccc21 (configuration not stated)
Result: > 30 µM

Query: Could you do the same for `COC(=O)[C@H]1[C@H]2C[C@@H]3c4[nH]c5ccccc5c4CCN3C[C@H]2C[C@@H](OC(=O)c2cc(OC)c(OC)c(OC)c2)[C@@H]1OC` , please?
Result: 24.6 µM

Query: Could you do the same for CC(NC(C)(C)C)C(=O)c1cccc(Cl)c1 (configuration not stated) , please?
Result: > 30 µM

Query: Could you do the same for `CC[N+](CC)(CCNC(=O)C(=O)NCC[N+](CC)(CC)Cc1ccccc1Cl)Cc1ccccc1Cl` , please?
Result: > 30 µM

Query: Could you do the same for `N[C@@H](Cc1cc(I)c(Oc2cc(I)c(O)c(I)c2)c(I)c1)C(=O)O` , please?
Result: > 30 µM

Further cases:
Query: # AC50 lookup, item `CCN(CC)CC(=O)Nc1c(C)cccc1C`
Result: > 30 µM

Query: Could you do the same for `NCC1(CC(=O)O)CCCCC1` , please?
Result: > 30 µM

Query: Could you do the same for CC(C)(C)NCC(O)COc1cccc2c1CC(O)C(O)C2 (configuration not stated) , please?
Result: > 10 µM

Query: Could you do the same for `O=C(O)COC(=O)Cc1ccccc1Nc1c(Cl)cccc1Cl` , please?
Result: > 30 µM

Query: Could you do the same for `O=C(O)c1ccc2nc(-c3cc(Cl)cc(Cl)c3)oc2c1` , please?
Result: > 30 µM

Query: Could you do the same for OCC(O)COc1ccc(Cl)cc1 (configuration not stated) , please?
Result: > 10 µM

Query: Could you do the same for CCC(=O)c1ccc2c(c1)N(CC(C)N(C)C)c1ccccc1S2 (configuration not stated) , please?
Result: > 10 µM

Query: Could you do the same for `O=C1CN=C(c2ccccc2Cl)c2cc([N+](=O)[O-])ccc2N1` , please?
Result: > 30 µM

Query: Could you do the same for `CC1=C(C(=O)O)N2C(=O)[C@@H](NC(=O)[C@H](N)C3=CCC=CC3)[C@H]2SC1` , please?
Result: > 30 µM

Query: Could you do the same for `OCCN(CCO)c1nc(N2CCCCC2)c2nc(N(CCO)CCO)nc(N3CCCCC3)c2n1` , please?
Result: > 30 µM

Query: Could you do the same for `OCC(CO)N[C@H]1C[C@](O)(CO)[C@@H](O)[C@H](O)[C@H]1O` , please?
Result: > 30 µM

---

# system-tested: 5-hydroxytryptamine receptor 1A (Homo sapiens, UniProt P08908); further: assay procedure not described here
# Sequence (P08908 whole entry): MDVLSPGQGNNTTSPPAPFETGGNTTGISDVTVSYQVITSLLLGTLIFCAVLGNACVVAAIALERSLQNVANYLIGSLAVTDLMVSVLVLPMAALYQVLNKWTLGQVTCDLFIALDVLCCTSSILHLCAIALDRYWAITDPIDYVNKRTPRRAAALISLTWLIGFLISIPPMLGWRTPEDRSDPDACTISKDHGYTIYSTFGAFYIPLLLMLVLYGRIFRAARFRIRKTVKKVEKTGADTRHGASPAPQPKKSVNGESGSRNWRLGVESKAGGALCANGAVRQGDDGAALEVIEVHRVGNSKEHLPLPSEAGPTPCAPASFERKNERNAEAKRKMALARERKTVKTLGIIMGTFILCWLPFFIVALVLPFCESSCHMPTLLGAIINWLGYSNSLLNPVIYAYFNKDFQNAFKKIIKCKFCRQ
# Format: functional, cell-based
reported-endpoint: AC50

Query: # AC50 lookup, item COC(=O)[C@H]1[C@H]2C[C@@H]3c4[nH]c5ccccc5c4CCN3C[C@H]2C[C@@H](OC(=O)c2cc(OC)c(OC)c(OC)c2)[C@@H]1OC [DESERPIDINE]
Result: > 10 µM

Query: Could you do the same for CCC1(CC)C(=O)NC(=O)N(C)C1=O [METHARBITAL] , please?
Result: > 10 µM

Further cases:
Query: # AC50 lookup, item CC[N+](CC)(CCNC(=O)C(=O)NCC[N+](CC)(CC)Cc1ccccc1Cl)Cc1ccccc1Cl [AMBENONIUM]
Result: > 30 µM

Query: Could you do the same for CN1CC2c3ccccc3Oc3ccc(Cl)cc3C2C1 (centres undefined) [ASENAPINE] , please?
Result: 0.0097 µM

Query: Could you do the same for Nc1nnc(-c2cccc(Cl)c2Cl)c(N)n1 [LAMOTRIGINE] , please?
Result: > 10 µM

Query: Could you do the same for CN(C)[C@@H]1C(O)=C(C(=O)NCN2CCCC2)C(=O)[C@@]2(O)C(O)=C3C(=O)c4c(O)cccc4[C@@](C)(O)[C@H]3C[C@@H]12 [ROLITETRACYCLINE] , please?
Result: > 30 µM

Query: Could you do the same for Nc1ccc(S(=O)(=O)Nc2ncccn2)cc1 [SULFADIAZINE] , please?
Result: > 10 µM

Query: Could you do the same for NCC1(CC(=O)O)CCCCC1 [GABAPENTIN] , please?
Result: > 30 µM

Query: Could you do the same for C[C@]12C=CC(=O)C=C1C(Cl)=C[C@@H]1[C@@H]2[C@@H](O)C[C@@]2(C)[C@H]1CC[C@]2(O)C(=O)CO [CLOPREDNOL] , please?
Result: > 30 µM
